All values here come from patent US20240247080A1.

biological target: human GLP-1 receptor (human, UniProt P43220 24-463); test: cell-based or functional assay
Starred links: 1 amine or outer side, 2 acyl side, 3 side chain; linkers in the order of their positions; H or OH if unused. Non-standard residues stand in square brackets, D forms with d. Groups on a side chain read outwards from the residue. No end group written: not given here. *: point of attachment. C18 diacid = O=C(O)CCCCCCCCCCCCCCCCC(=O)*; γGlu = O=C(O)[C@H](CCC(=O)[*:2])N[*:1]; εLys = N[C@@H](CCCCN[*:1])C(=O)[*:2]; AEEA = NCCOCCOCC(=O)O; Aib = CC(C)(N)C(=O)O; Ahx = NCCCCCC(=O)O
True if EC50 CreLuc hGLP1R 100% hP is below 3 nM. False if not; exact matches included in False.

- binder: "YXEGTFTSDYSIXLEKQAQXAFVEWLIKGGPSSGASLRHYYNWXTRQRY (Aib at 2, 13, 20; Tle at 44; K28 side chain: C20DA-gGlu-gGlu-gGlu-gGlu-gGlu-gGlu-eLys; C-terminal NH2) [Compound 137]"
  classification: "True"
- binder: "Y[Aib]EGTFTSDYSI[Aib]LEKQAQ[Aib]AFVQWLIK([εLys-γGlu-γGlu-γGlu-γGlu-γGlu-C18 diacid])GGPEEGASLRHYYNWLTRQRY-NH2 [Compound 143]"
  classification: "False"
- binder: "YXEGTFTSDYSIXLEKAAQXAFVEWLIKGGPSSGASLRHYYNWLTRQRY (Aib at 2, 13, 20; K28 side chain: C20DA-gGlu-gGlu-gGlu-gGlu-gGlu-gGlu-eLys; C-terminal NH2) [Compound 136]"
  classification: "False"
- binder: "Y[Aib]EGTFTSDYSI[Aib]LEKQAQ[Aib]AFVQWLIK([εLys-Glu-Glu-Glu-Glu-Glu-C18 diacid])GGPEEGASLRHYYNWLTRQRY-NH2 [Compound 155]"
  classification: "False"
- binder: "YXEGTFTSDYSIXLEKQAQXAFVEWLIKGGPSSAASLRHYYNWLTRQRY (Aib at 2, 13, 20; K28 side chain: C20DA-gGlu-gGlu-gGlu-gGlu-gGlu-gGlu-eLys; C-terminal NH2) [Compound 98]"
  classification: "False"
- binder: "YXEGTFTSDYSIXLEKQAQXAFVEWLIKGGQSSGASLRHYYNWLTRQRY (Aib at 2, 13, 20; K28 side chain: C20DA-gGlu-gGlu-gGlu-gGlu-gGlu-gGlu-eLys; C-terminal NH2) [Compound 123]"
  classification: "False"
- binder: "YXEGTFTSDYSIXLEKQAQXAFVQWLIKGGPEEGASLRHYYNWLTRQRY (Aib at 2, 13, 20; K28 side chain: C18DA-gGlu-gGlu-gGlu-gGlu-gGlu-gGlu-eLys; C-terminal NH2) [Compound 149]"
  classification: "False"
- binder: "YXEGTFTSDYSIXLEKQAQXAFVQWLIKGGPSSGASLRHYYNWLTRQRY (Aib at 2, 13, 20; K28 side chain: C18DA-gGlu-gGlu-gGlu-gGlu-gGlu-gGlu-eLys; C-terminal NH2) [Compound 170]"
  classification: "True"

Request: Given the entry YXEGTFTSDYSIXLEDQAQXAFVEWLIKGGPSSGASLRHYYNWLTRQRY (Aib at 2, 13, 20; K28 side chain: C20DA-gGlu-gGlu-gGlu-gGlu-gGlu-gGlu-eLys; C-terminal NH2) [Compound 90] , would its reported EC50 CreLuc hGLP1R 100% hP be below 3 nM?
Response: False

Request: Given the entry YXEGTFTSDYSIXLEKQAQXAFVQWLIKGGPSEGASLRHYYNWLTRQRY (Aib at 2, 13, 20; NMeR at 48; K28 side chain: C20DA-gGlu-gGlu-gGlu-gGlu-gGlu-gGlu-eLys; C-terminal NH2) [Compound 125] , would its reported EC50 CreLuc hGLP1R 100% hP be below 3 nM?
Response: True

Request: Given the entry Y[Aib]EGTFTSDYSI[Aib]LEEQAQ[Aib]AFVEWLIKGGPSSGASLRHYYNWLTRQRY-NH2 (not fully specified (residue 28)) [Compound 100] , would its reported EC50 CreLuc hGLP1R 100% hP be below 3 nM?
Response: True

Request: Given the entry Y[Aib]EGTFTSDYSI[Aib]LEKQAE[Aib]AFVEWLIK([AEEA-AEEA-γGlu-γGlu-γGlu-γGlu-C18 diacid])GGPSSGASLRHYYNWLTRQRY-NH2 [Compound 150] , would its reported EC50 CreLuc hGLP1R 100% hP be below 3 nM?
Response: False

Request: Given the entry YXEGTFTSDYSIXLEKQAQXAFVEWLIKGGPSSGASLRXYYNWLTRQRY (Aib at 2, 13, 20; Tle at 39; K28 side chain: C20DA-gGlu-gGlu-gGlu-gGlu-gGlu-gGlu-eLys; C-terminal NH2) [Compound 119] , would its reported EC50 CreLuc hGLP1R 100% hP be below 3 nM?
Response: False

Request: Given the entry YXEGTFTSDYSIXLEKQAQXAFVEYLIKGGPSSGASLRHYYNWLTRQRY (Aib at 2, 13, 20; K28 side chain: C20DA-gGlu-gGlu-gGlu-gGlu-gGlu-gGlu-eLys; C-terminal NH2) [Compound 135] , would its reported EC50 CreLuc hGLP1R 100% hP be below 3 nM?
Response: True

Request: Given the entry YXEGTFTSDYSIXLEAQAQXAFVEWLIKGGPSSGASLRHYYNWLTRQRY (Aib at 2, 13, 20; K28 side chain: C20DA-gGlu-gGlu-gGlu-gGlu-gGlu-gGlu-eLys; C-terminal NH2) [Compound 102] , would its reported EC50 CreLuc hGLP1R 100% hP be below 3 nM?
Response: False

Request: Given the entry Y[Aib]EGTFTSDYSI[Aib]LEKQAQ[Aib]EFVQWLIK([AEEA-AEEA-γGlu-γGlu-γGlu-C18 diacid])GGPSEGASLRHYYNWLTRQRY-NH2 [Compound 160] , would its reported EC50 CreLuc hGLP1R 100% hP be below 3 nM?
Response: False

Request: Given the entry Y[Aib]EGTFTSDLSI[Aib]LEKQAQ[Aib]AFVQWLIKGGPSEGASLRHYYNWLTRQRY-NH2 (not fully specified (residue 28)) [Compound 113] , would its reported EC50 CreLuc hGLP1R 100% hP be below 3 nM?
Response: False

Request: Given the entry Y[Aib]EGTFTSDYSI[Aib]LEKQAQ[Aib]AFVQWLIK([Ahx-γGlu-γGlu-γGlu-γGlu-γGlu-γGlu-C18 diacid])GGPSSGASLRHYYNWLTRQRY-NH2 [Compound 139] , would its reported EC50 CreLuc hGLP1R 100% hP be below 3 nM?
Response: True

Request: Given the entry YXEGTFTSDYSILLEKQAQXAFVEWLIKGGPSSGASLRHYYNWLTRQRY (Aib at 2, 20; K28 side chain: C20DA-gGlu-Glu-gGlu-gGlu-gGlu-gGlu-eLys; C-terminal NH2) [Compound 104] , would its reported EC50 CreLuc hGLP1R 100% hP be below 3 nM?
Response: True
